tested on: PCSK9 gene; test: PCSK9 gRNA/SpCas9 editing in primary human hepatocytes (Tables 2, 4); type: cell-based; conditions: 100 ng/RNA/mL; SpCas9 mRNA MS002 1:1 by weight
In the oligonucleotide strings, read from the 5' end, every base follows the letter of its sugar. An asterisk marks phosphorothioate; unmarked linkages are phosphodiester. Other units and linkages are bracketed, terminal groups are in braces. A string of capitals states the bases alone. m = 2'-O-methyl; r = 2'-OH (RNA)
Quick reference for Human Primary Hepatocyte Editing % 100 among some molecules

| MOLECULE | OUTPUT_UNIT | Human Primary Hepatocyte Editing % 100 |
| --- | --- | --- |
| GA196: PCSK9 gRNA; protospacer GAGTGACCACCGGGAAATCG (SEQ ID NO: 190) (nucleic acid, sugars from the 5' end m3 r94 m3, linkages s3 o93 s3 (s phosphorothioate, o phosphodiester), T or U not given here) guide: GAGUGACCACCGGGAAAUCGGUUUUAGAGCUAGAAAUAGCAAGUUAAAAUAAGGCUAGUCCGUUAUCAACUUGAAAAAGUGGCACCGAGUCGGUGCUUUU | % | 0.75 |
| GA227: PCSK9 gRNA; protospacer GTCCCGGAAGTTGCCGGCAG (SEQ ID NO: 221) (nucleic acid, sugars from the 5' end m3 r94 m3, linkages s3 o93 s3 (s phosphorothioate, o phosphodiester), T or U not given here) guide: GUCCCGGAAGUUGCCGGCAGGUUUUAGAGCUAGAAAUAGCAAGUUAAAAUAAGGCUAGUCCGUUAUCAACUUGAAAAAGUGGCACCGAGUCGGUGCUUUU | % | 0.02 |
| GA226: PCSK9 gRNA; protospacer GGCTTTTCCGAATAAACTCC (SEQ ID NO: 220) (nucleic acid, sugars from the 5' end m3 r94 m3, linkages s3 o93 s3 (s phosphorothioate, o phosphodiester), T or U not given here) guide: GGCUUUUCCGAAUAAACUCCGUUUUAGAGCUAGAAAUAGCAAGUUAAAAUAAGGCUAGUCCGUUAUCAACUUGAAAAAGUGGCACCGAGUCGGUGCUUUU | % | 0.4 |
| GA199: PCSK9 gRNA; protospacer GAAGCGGGTCCCGTCCTCCT (SEQ ID NO: 193) (nucleic acid, sugars from the 5' end m3 r94 m3, linkages s3 o93 s3 (s phosphorothioate, o phosphodiester), T or U not given here) guide: GAAGCGGGUCCCGUCCUCCUGUUUUAGAGCUAGAAAUAGCAAGUUAAAAUAAGGCUAGUCCGUUAUCAACUUGAAAAAGUGGCACCGAGUCGGUGCUUUU | % | 1.17 |
| GA182: PCSK9 gRNA; protospacer CACCTACGTGGTGGTGCTGA (SEQ ID NO: 176) (nucleic acid) guide: mC*mA*mC*rCrUrArCrGrUrGrGrUrGrGrUrGrCrUrGrArGrUrUrUrUrArGrArGrCrUrArGrArArArUrArGrCrArArGrUrUrArArArArUrArArGrGrCrUrArGrUrCrCrGrUrUrArUrCrArArCrUrUrGrArArArArArGrUrGrGrCrArCrCrGrArGrUrCrGrGrUrGrCrU*mU*mU*mU | % | 0.95 |
| GA185: PCSK9 gRNA; protospacer AGACATGCAGGATCTTGGTG (SEQ ID NO: 179) (nucleic acid) guide: mA*mG*mA*rCrArUrGrCrArGrGrArUrCrUrUrGrGrUrGrGrUrUrUrUrArGrArGrCrUrArGrArArArUrArGrCrArArGrUrUrArArArArUrArArGrGrCrUrArGrUrCrCrGrUrUrArUrCrArArCrUrUrGrArArArArArGrUrGrGrCrArCrCrGrArGrUrCrGrGrUrGrCrU*mU*mU*mU | % | 1.6 |
